tested on: NCI-H1944; experiment: normalised cell viability (NPI; 0 = phenylarsine oxide control, 1 = DMSO control) (fraction of DMSO control); higher = more viable cells (less compound toxicity); conditions: glucocorticoid arm: hydrocortisone 2.75 uM pre-treated 2 days and continued; compound 1 µM; 6 days
Where a name gives a salt, the structure may show the parent alone. Whole data set: some 1,900 compounds, median “normalised cell viability (NPI; 0 = phenylarsine oxide control, 1 = DMSO control)” near 1, cut for the lowest 2% near 0.039. This is one part of a sample in which the lowest values are shown more often than they occur.
observed-property: normalised cell viability
One number for each entry.

Study these solved cases before continuing.
Cc1c(F)ccc(C(=O)Nc2cc([N+](=O)[O-])ccc2N2CCN(C)CC2)c1Cl; 1.03
Clc1ccc(C2(c3ccc(-c4cn[nH]c4)cc3)CCNCC2)cc1; 0.975
OC[C@H]1O[C@@H](n2cnc3c(N[C@H]4CCC[C@@H]4O)ncnc32)[C@H](O)[C@@H]1O; 1.01
Nc1nc(Cl)nc2c1ncn2[C@H]1C[C@H](O)[C@@H](CO)O1; 0.169
CC1(C)CNc2cc(NC(=O)c3cccnc3NCc3ccncc3)ccc21 [Motesanib Diphosphate]; 1
Cc1cnc(NC(=O)Nc2cc(Br)c(C)cc2OC[C@@H]2CNCCO2)cn1; 1.04

Hello, I would appreciate it if you could give normalised cell viability for each entry below.
1. CN(C)CCC(c1ccc(Cl)cc1)c1ccccn1 (single isomer, unassigned; (+)) [(+)-Chlorpheniramine maleate]
2. Nc1nc(Cl)nc2c1ncn2[C@@H]1O[C@H](CO)[C@@H](O)[C@H]1O
3. CC(C)C[C@H](NC(=O)[C@H](Cc1ccccc1)NC(=O)c1cnccn1)B(O)O [Bortezomib (Velcade)]
4. FC(F)(F)c1cc(COC2CCCNC2c2ccccc2)cc(C(F)(F)F)c1 [L-733,060 hydrochloride]

Result:
[0.979, 0.998, 0.677, 1]

---

Kindly state normalised cell viability for each of the entries shown.
test system: NCI-H1944; test: normalised cell viability (NPI; 0 = phenylarsine oxide control, 1 = DMSO control) (fraction of DMSO control); higher = more viable cells (less compound toxicity); details: glucocorticoid arm: vehicle; compound 1 µM; 6 days
Structures can show the parent of a compound that is named as a salt. In all, about 1,900 compounds were measured (“normalised cell viability (NPI; 0 = phenylarsine oxide control, 1 = DMSO control)”: median about 1, lowest 2% from about 0.039 on). The sample as a whole holds a higher share of the lowest values than the screen did.
One number for each entry.

O=C(O)[C@H]1C[C@H](C(=O)O)N1 (relative stereo) [trans-Azetidine-2,4-dicarboxylic acid]; 0.984
Cc1ccccc1N1CCN(S(=O)(=O)C[C@]23CC[C@H](C[C@@H]2NC(=O)[C@@H](N)CCS(C)(=O)=O)C3(C)C)CC1 [L-368,899 hydrochloride]; 0.985
CC1CCN=C(N)S1 (racemic) [(±)-AMT hydrochloride]; 0.991

For every item in the list below, what is its measured normalised cell viability?
1. CCCC(CCC)C(=O)NO [Valproic acid hydroxamate]
2. C[C@H]1C[C@H]2[C@@H]3CCC4=CC(=O)C=C[C@]4(C)[C@@]3(Cl)[C@@H](O)C[C@]2(C)[C@@]1(O)C(=O)CO
3. Nc1cc(C(F)(F)F)c(-c2cc(N3CCOCC3)nc(N3CCOCC3)n2)cn1
4. CC(C)C[C@H](NC(=O)[C@H](CCc1ccccc1)NC(=O)CN1CCOCC1)C(=O)N[C@@H](Cc1ccccc1)C(=O)N[C@@H](CC(C)C)C(=O)[C@@]1(C)CO1
5. CC(C)(C)NCC(O)COc1cccc2[nH]c(=O)[nH]c12 (racemic)

Result:
1: 0.998; 2: 0.803; 3: 0.613; 4: 0.00203; 5: 0.985

Batch of 4 compounds: report normalised cell viability for each.
1. NC1(C(=O)O)CCCCC1 [1-Amino-1-cyclohexanecarboxylic acid hydrochloride]
2. COC1=C(OC)C(=O)c2ccccc2C1=O
3. Cn1c(=O)c2nc[nH]c2n(C)c1=O
4. N#C/C(=C\c1ccc(-c2cc(Cl)ccc2Cl)o1)C(=O)Nc1cccc2ncccc12

Result:
0.991
0.997
0.99
0.989

---

system: NCI-H1944; assay: normalised cell viability (NPI; 0 = phenylarsine oxide control, 1 = DMSO control) (fraction of DMSO control); higher = more viable cells (less compound toxicity); details: glucocorticoid arm: hydrocortisone 2.75 uM pre-treated 2 days and continued; compound 5 µM; 6 days
Where a name gives a salt, the structure may show the parent alone. Over roughly 1,900 compounds, “normalised cell viability (NPI; 0 = phenylarsine oxide control, 1 = DMSO control)” has its median near 1; the lowest 2% begin near 0.039. Many of the other results were omitted from the sample, so the lowest values are more common in it than they were.
Simple rule here: normalised cell viability less than 1 is TRUE, otherwise FALSE.

Completed entries (count: 6):
O=C(N[C@@H](Cc1ccccc1)C(=O)CCl)OCc1ccccc1; FALSE
CN(C)CCC(c1ccc(Br)cc1)c1ccccn1 (single isomer, unassigned; (+)) [(+)-Brompheniramine maleate]; FALSE
CC(C)[C@H](NC(=O)OCc1ccccc1)C(=O)N[C@H](C=O)Cc1ccccc1; FALSE
Nc1nc(Cl)nc2c1ncn2[C@@H]1O[C@H](COP(=O)(O)OP(=O)(O)OP(=O)(O)O)[C@H](O)C1O (stereo partly specified) [2-Chloroadenosine triphosphate tetrasodium]; TRUE
Cc1cc(C(=O)NOCCO)c(Nc2ccc(I)cc2F)n(C)c1=O; TRUE
O=Nc1c(-c2c(O)[nH]c3cc(Br)ccc23)[nH]c2ccccc12; FALSE

Task: Hi there! Is normalised cell viability for `Nc1nc(Cl)nc2c1ncn2[C@@H]1O[C@H](CO)[C@@H](O)[C@@H]1F` below 1, do you know?
Result: TRUE

Task: Answer whether the molecule `C=CC(=O)Nc1cc(Nc2nccc(-c3cn(C)c4ccccc34)n2)c(OC)cc1N(C)CCN(C)C` has normalised cell viability strictly less than 1
Result: TRUE

---

system: NCI-H1944; test: normalised cell viability (NPI; 0 = phenylarsine oxide control, 1 = DMSO control) (fraction of DMSO control); NCI-H1944 is a non-small cell lung cancer line; higher = more viable cells (less compound toxicity); settings: glucocorticoid arm: hydrocortisone 2.75 uM co-treatment; compound 1 µM; 6 days;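 also: CTB read-out in 384-well plates, triplicate wells, NPI normalised per plate against 1 µM phenylarsine oxide (0) and 0.1% DMSO (1) controls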
Counter-ions that a name gives are not always drawn. The full ranking holds about 1,900 compounds; the median of “normalised cell viability (NPI; 0 = phenylarsine oxide control, 1 = DMSO control)” is about 1, and the lowest 2% start at about 0.039. The sample as a whole holds a higher share of the lowest values than the screen did.
observed-property: normalised cell viability
One number for each entry.

Example entries begin here.
Nc1nc2c(nc(Br)n2C2OC3COP(=O)(O)O[C@@H]3C2O)c(=O)[nH]1 (stereo not given in full) [8-Bromo-cGMP sodium]; 1.02
CCN(CC)CCCC(C)Nc1ccnc2cc(Cl)ccc12 (stereo not given) [Chloroquine diphosphate]; 1
S=C(S)N1CCCC1 [Ammonium pyrrolidinedithiocarbamate]; 1
CCCCOc1c(C(=O)c2c(F)cc(C)cc2F)c[nH]c2nncc1-2; 0.91
OCCn1cc(-c2cnc3nnn(Cc4ccc5ncccc5c4)c3n2)cn1; 1
O=C(CCCCCCC(=O)NO)NO [Suberoyl bis-hydroxamic acid]; 0.958

Hey, quick one: what's normalised cell viability for each of these?
1. CCCCN(Cc1ccc(C(=O)NO)cc1)C(=O)Nc1ccccc1
2. C/C(=C\c1csc(C)n1)[C@@H]1C[C@@H]2O[C@]2(C)CCC[C@H](C)[C@H](O)[C@@H](C)C(=O)C(C)(C)[C@@H](O)CC(=O)N1 [Ixabepilone]
3. O=C1NC(=O)C(=Cc2ccc(-c3ccc(F)cc3)o2)S1 (stereo in doubt)
4. Nc1nccc2c1ncn2[C@@H]1O[C@H](CO)[C@@H](O)[C@H]1O
5. CC(Cc1ccccc1)Nc1ncnc2c1ncn2C1OC(CO)C(O)C1O (stereo not drawn) [R(-)-N6-(2-Phenylisopropyl)adenosine]
6. COc1c/c(=C2\C=c3ccccc3=N2)[nH]/c1=C\c1[nH]c(C)cc1C [Obatoclax mesylate (GX15-070)]
7. CC(C)[C@H](C(=O)Nc1ccc(C(=O)NO)cc1)c1ccccc1

Result:
1: 0.949; 2: 0.132; 3: 1; 4: 0.989; 5: 0.998; 6: 0.972; 7: 0.752

I would be grateful if you could provide normalised cell viability for each of the following entries.
1. CC(NC(=O)C(O)c1cc(F)cc(F)c1)C(=O)NC1C(=O)N(C)c2ccccc2-c2ccccc21 (stereo not given)
2. CCc1ccc(/C=C2/SC(=S)NC2=O)cc1
3. C/C=C1\NC(=O)[C@H]2CSSCC/C=C/[C@H](CC(=O)N[C@H](C(C)C)C(=O)N2)OC(=O)[C@H](C(C)C)NC1=O [Romidepsin (FK228, Depsipeptide)]
4. O=C(Nc1cccc(Nc2ncc(Br)c(NCCc3cnc[nH]3)n2)c1)N1CCCC1
5. Oc1cc2c(cc1O)C(c1ccccc1)CNCC2 (racemic)
6. C/C=C1\NC(=O)[C@H]2CSSCC/C=C/[C@H](CC(=O)N[C@H](C(C)C)C(=O)N2)OC(=O)[C@H](C(C)C)NC1=O [Depsipeptide]

Result:
1: 0.973; 2: 1.01; 3: 0.00704; 4: 0.955; 5: 0.987; 6: 6.37e-05

Hi, could you look up normalised cell viability for each item in my list?
1. Nc1ncnc2c1c(-c1cccc(OCc3ccccc3)c1)cn2C1CC(CN2CCC2)C1 (stereo not given)
2. O=c1[nH]cc(F)c(=O)[nH]1
3. O=C(CCCCCCNC(=O)c1cnc(N(c2ccccc2)c2ccccc2)nc1)NO
4. CS(=O)(=O)N1CCN(Cc2cc3nc(-c4cccc5[nH]ncc45)nc(N4CCOCC4)c3s2)CC1
5. Cc1cc(C(=O)NOCCO)c(Nc2ccc(I)cc2F)n(C)c1=O
6. c1ccc2c(c1)CC(N1CCN(c3cccc4c3OCCO4)CC1)C2

Result:
1: 0.457; 2: 0.98; 3: 0.939; 4: 1.02; 5: 0.614; 6: 0.988

For each entry beneath this line, provide reported normalised cell viability.
1. Cn1cc(C(=O)OCC2CCN(CCNS(C)(=O)=O)CC2)c2ccccc21
2. CN1CCc2c(c3ccccc3n2Cc2ccc(C(=O)NO)cc2)C1

Result:
1. 1.01
2. 0.984

Take each entry in turn and give its normalised cell viability.
1. COC(=O)C[C@](O)(CCCC(C)(C)O)C(=O)O[C@@H]1C(OC)=C[C@]23CCCN2CCc2cc4c(cc2[C@H]13)OCO4 [Omacetaxine mepesuccinate]
2. Cn1c(=O)c(F)c(Nc2ccc(I)cc2F)c2c(=O)n(C[C@@H](O)CO)cnc21
3. Cc1cc(C)c(/C=C2\C(=O)Nc3ccccc32)[nH]1 [Semaxanib (SU5416)]
4. CCCCc1nc2cc(/C=C/C(=O)NO)ccc2n1CCN(CC)CC [Pracinostat (SB939)]
5. CN1CCc2c(cc(O)c(O)c2Cl)C(c2cccc(Cl)c2)C1 (stereo not given)
6. CCn1nnc2c(N3CCOCC3)nc(-c3ccc(NC(=O)Nc4ccc(C(=O)N5CCN(C)CC5)cc4)cc3)nc21
7. CCCCCCCCCCCCCCCc1cccc(OCC)c1C(=O)Nc1ccc(Cl)c(C(F)(F)F)c1

Result:
1: 0.00277; 2: 0.641; 3: 1.09; 4: 0.975; 5: 1.01; 6: 0.201; 7: 1.01

Task: // fetch NCI-H1944 normalised cell viability for C=CS(=O)(=O)NC1CCN(C(=O)CNc2cc(I)c(Cl)cc2OC)CC1 [K-Ras(G12C) inhibitor 9]
Result: 1.03
